Values were extracted from PubChem BioAssay AID2060627.

# Tested on: 156681-154-R-J1-PDC complex spheroid viability
# EXPERIMENT SUMMARY: Anticancer human tumor 156681-154-R-J1-PDC patient-derived melanoma cell line growth inhibition [CLK]
# EXPERIMENTAL SETUP: second compound 10 µM; first compound 0.01 µM; hits give low values
// values below are reported viability, T/C
Give a bare numeral; the unit % is implied.

Worked cases, viability, T/C given:
CCN1CCN(Cc2ccc(Nc3ncc(F)c(-c4cc(F)c5nc(C)n(C(C)C)c5c4)n3)nc2)CC1 + CNC(=O)c1ccc(Nc2nc(OC3CCCC3)c3c(-c4ccc5nc(C)oc5c4)c[nH]c3n2)c(OC)c1    38.5
Cn1ncnc1[C@H]1c2n[nH]c(=O)c3cc(F)cc(c23)N[C@@H]1c1ccc(F)cc1 + CN1CCN(c2cc(C(=O)Nc3cc4cc(-c5cnn(C)c5)ccc4cn3)ccn2)CC1    0.36
Cn1ncnc1[C@H]1c2n[nH]c(=O)c3cc(F)cc(c23)N[C@@H]1c1ccc(F)cc1 + CNC(=O)c1ccc(Nc2nc(OC3CCCC3)c3c(-c4ccc5nc(C)oc5c4)c[nH]c3n2)c(OC)c1    32.5

Here is the next item to consider.
(Q) Fill in the blank: the reported viability, T/C of COc1c(OCCCN2CCOCC2)ccc2c3n(c(=NC(=O)c4cnc(N)nc4)nc12)CCN3 + CN1CCN(c2cc(C(=O)Nc3cc4cc(-c5cnn(C)c5)ccc4cn3)ccn2)CC1 is ____.
(A) 1.39

* * *

# Tested on: 156681-154-R-J1-PDC complex spheroid viability
# EXPERIMENT SUMMARY: Anticancer human tumor 156681-154-R-J1-PDC cell line growth inhibition [CLK];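 further: spheroids exposed to the agents for seven days; 100% = DMSO vehicle control viability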
# EXPERIMENTAL SETUP: second compound 3.16 µM; first compound 0.1 µM; hits give low values
// values below are reported viability, T/C
Give a bare numeral; the unit % is implied.

Worked cases, viability, T/C given:
CC1COCCN1c1cc(C2(S(C)(=N)=O)CC2)nc(-c2ccnc3[nH]ccc23)n1 (stereo not drawn) + CN1CCN(c2cc(C(=O)Nc3cc4cc(-c5cnn(C)c5)ccc4cn3)ccn2)CC1    0.38
O=c1[nH]cc(F)c(=O)[nH]1 + CNC(=O)c1ccc(Nc2nc(OC3CCCC3)c3c(-c4ccc5nc(C)oc5c4)c[nH]c3n2)c(OC)c1    42.3

Here is the next item to consider.
(Q) Request: viability, T/C, test system 156681-154-R-J1-PDC complex spheroid viability, entry CCCS(=O)(=O)Nc1ccc(F)c(C(=O)c2c[nH]c3ncc(-c4ccc(Cl)cc4)cc23)c1F + CNC(=O)c1ccc(Nc2nc(OC3CCCC3)c3c(-c4ccc5nc(C)oc5c4)c[nH]c3n2)c(OC)c1
(A) 29.7

* * *

# System: 156681-154-R-J1-PDC complex spheroid viability
# EXPERIMENT SUMMARY: Anticancer human tumor 156681-154-R-J1-PDC cell line growth inhibition [CLK];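 further: spheroids exposed to the agents for seven days; 100% = DMSO vehicle control viability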
# EXPERIMENTAL SETUP: second compound 1 µM; first compound 0.0949 µM; hits give low values
Field: label. Allowed values: met (viability, T/C < 0.2%) or not met (viability, T/C >= 0.2%).

Some entries whose results are on file:
CC(C)CC(NC(=O)C(Cc1ccccc1)NC(=O)c1cnccn1)B(O)O (stereo unspecified) + CN1CCN(c2cc(C(=O)Nc3cc4cc(-c5cnn(C)c5)ccc4cn3)ccn2)CC1    not met
NC(=O)C(=Cn1cnc(-c2cc(C(F)(F)F)cc(C(F)(F)F)c2)n1)c1cncnc1 + CN1CCN(c2cc(C(=O)Nc3cc4cc(-c5cnn(C)c5)ccc4cn3)ccn2)CC1    met
NC(=O)C(=Cn1cnc(-c2cc(C(F)(F)F)cc(C(F)(F)F)c2)n1)c1cncnc1 + CNC(=O)c1ccc(Nc2nc(OC3CCCC3)c3c(-c4ccc5nc(C)oc5c4)c[nH]c3n2)c(OC)c1    not met
C=CC(=O)Nc1cc(Nc2nccc(-c3cn(C)c4ccccc34)n2)c(OC)cc1N(C)CCN(C)C + CNC(=O)c1ccc(Nc2nc(OC3CCCC3)c3c(-c4ccc5nc(C)oc5c4)c[nH]c3n2)c(OC)c1    not met
C=CC(=O)Nc1cc(Nc2nccc(-c3cn(C)c4ccccc34)n2)c(OC)cc1N(C)CCN(C)C + CN1CCN(c2cc(C(=O)Nc3cc4cc(-c5cnn(C)c5)ccc4cn3)ccn2)CC1    not met

(Q) hey, is viability, T/C for CC(C)CC(NC(=O)C(Cc1ccccc1)NC(=O)c1cnccn1)B(O)O (stereo unspecified) + CNC(=O)c1ccc(Nc2nc(OC3CCCC3)c3c(-c4ccc5nc(C)oc5c4)c[nH]c3n2)c(OC)c1 lower than 0.2% or not?
(A) met
